- Test system: UO-31
- test-description: AUC of dose-response viability curve, drug alone (arbitrary (AUC of normalised viability)); higher = less growth inhibition
- experimental-conditions: treatment: drug alone; 5 days
endpoint-label: AUC of dose-response viability curve
Form field (numeric): enter value without unit.

Guide cases for AUC of dose-response viability curve, answers given:
-- ask Record lookup: for UO-31, what AUC of dose-response viability curve belongs to CN[C@@H]1C[C@H]2O[C@@](C)([C@@H]1OC)n1c3ccccc3c3c4c(c5c6ccccc6n2c5c31)C(=O)NC4 [Staurosporine] ?
-- reply 0.1

-- ask Consider next the molecule COc1ccc2c(Oc3ccc(NC(=O)c4c(C)n(CC(C)(C)O)n(-c5ccccc5)c4=O)nc3)ccnc2c1 [AMG458] in the same way.
-- reply 3.98

-- ask Consider next the molecule O=C1NC(=O)/C(=C/c2ccc3nccnc3c2)S1 in the same way.
-- reply 4.01

---
-- ask Record lookup: for UO-31, what AUC of dose-response viability curve belongs to Cc1cc(C(=O)NOCCO)c(Nc2ccc(I)cc2F)n(C)c1=O [AZD8330] ?
-- reply 3.95

-- ask Consider next the molecule C[C@@H](Oc1cc(-n2cnc3ccc(CN4CCN(C)CC4)cc32)sc1C(N)=O)c1ccccc1C(F)(F)F in the same way.
-- reply 1.4

* * *

- Tested on: SN12C
- test-description: minimum viability across doses, drug alone, relative to DMSO (fraction); higher = less growth inhibition
- experimental-conditions: treatment: drug alone; 5 days
endpoint-label: minimum viability across doses
Form field (numeric): enter value without unit.

-- ask Record lookup: for SN12C, what minimum viability across doses belongs to CNC(=O)c1nn(C)c2c1C(C)(C)Cc1cnc(Nc3ccc(N4CCN(C)CC4)cc3)nc1-2 ?
-- reply 0.0145

---
-- ask Record lookup: for SN12C, what minimum viability across doses belongs to O=c1sn(-c2cccc3ccccc23)c(=O)n1Cc1ccccc1 [Tideglusib] ?
-- reply 0.871

-- ask Consider next the molecule COc1cc2nccc(Oc3ccc(NC(=O)Nc4cc(C)on4)c(Cl)c3)c2cc1OC [Tivozanib (AV-951)] in the same way.
-- reply 0.417

-- ask Consider next the molecule CN1CCN(C2CCN(C(=O)Nc3cc(Oc4ccc(NC(=O)C5(C(=O)Nc6ccc(F)cc6)CC5)c(F)c4)ccn3)CC2)CC1 [Golvatinib (E7050)] in the same way.
-- reply 0.346

-- ask Consider next the molecule O=C1NC(=O)C(=Cc2ccc(-c3ccc(F)cc3)o2)S1 (stereo in doubt) in the same way.
-- reply 0.82

-- ask Consider next the molecule CCS(=O)(=O)N1CC(CC#N)(n2cc(-c3ncnc4[nH]ccc34)cn2)C1 in the same way.
-- reply 0.885

-- ask Consider next the molecule CC1CCN(C(=O)CC#N)C[C@@H]1N(C)c1ncnc2[nH]ccc12.O=C(O)CC(O)(CC(=O)O)C(=O)O (stereo in doubt) in the same way.
-- reply 0.854

-- ask Consider next the molecule COCC[n+]1c2c(n(Cc3cnccn3)c1C)C(=O)c1ccccc1C2=O [YM155] in the same way.
-- reply 0.00269

* * *

Let's look at some compounds and their measured GI50, drug alone.
- Test system: 769-P
- test-description: GI50, drug alone; higher = less potent
- experimental-conditions: treatment: drug alone; 5 days
Give the value in nM but do not write nM after it.

Guide cases for GI50, drug alone, answers given:
-- ask Which GI50, drug alone reading was recorded for the compound CCN1CCN(C(=O)Cc2ccc(Nc3ncc(F)c(Nc4ccc(C(=O)Nc5ccccc5Cl)cc4)n3)cc2)CC1 ?
-- reply 2030

-- ask Consider next the compound COc1cc2ncnc(Nc3ccc(F)c(Cl)c3)c2cc1NC(=O)/C=C/CN1CCCCC1 in the same way.
-- reply 210

Pending compound:
-- ask Which GI50, drug alone reading was recorded for the compound C[C@@H](Oc1cc(-n2cnc3ccc(CN4CCN(C)CC4)cc32)sc1C(N)=O)c1ccccc1C(F)(F)F ?
-- reply 69.7
